Reference source: ChEMBL document CHEMBL1201862

test system: NCI-H226; assay: NCI tumour cell line growth inhibition, 48 h
Calls of active or inactive are those of the source. Cut-off read from the data, not from the text of the source: active = GI50 up to about 1.1 µM and inactive = higher.
Labels: active, inactive

- compound: "O=C(CSCC(=O)N/N=C\\c1ccc(O)c(O)c1O)N/N=C\\c1ccc(O)c(O)c1O"
  discreteLabel: "inactive"
- compound: "Cc1cc(C)c(OC(=O)Nc2cccc3ccccc23)c(-c2ccccc2)c1"
  discreteLabel: "inactive"
- compound: "Cc1cn(C2CC(O)C(Cn3cc(Cn4nc(Br)c(=O)[nH]c4=O)nn3)O2)c(=O)[nH]c1=O (stereo not given)"
  discreteLabel: "inactive"
- compound: "O=C1COc2cc3c(cc2N1)SCCC(=O)N3"
  discreteLabel: "inactive"
- compound: "CCN(CC)CCCNc1c2cc(OC)ccc2nc2cccc([N+](=O)[O-])c12"
  discreteLabel: "active"
- compound: "COc1cc(S(=O)(=O)Nc2nc(-c3ccc(N4C(=O)C(CC(=O)O)SC4c4ccccc4O)cc3)cs2)ccc1Cl (stereo not given)"
  discreteLabel: "inactive"
- compound: "CC(=O)Nc1ccc2oc(=O)c3ccccc3c2c1"
  discreteLabel: "inactive"
- compound: "Nc1nc(=O)[nH]cc1F"
  discreteLabel: "inactive"
- compound: "Cc1ccc(C[P+]2(c3ccccc3)CCCCC2)cc1.[O-][Cl+3]([O-])([O-])[O-]"
  discreteLabel: "inactive"
- compound: "CCC(=O)c1cn(C)c(=O)c2ccccc12"
  discreteLabel: "inactive"

###

test system: K562; test: NCI tumour cell line growth inhibition, 48 h
Activity calls are given as the source filed them. No stated cut-off is given here; in the data, active = GI50 up to about 1.1 µM and inactive = higher.
Labels: Y (active), N (inactive)

- inputSmiles: "N#CN=C(NCc1ccccc1)NCc1ccccc1"
  discreteLabel: "N"
- inputSmiles: "CO[C@H]1[C@@H](O)[C@@H](O)O[C@@H](O[C@H]2CC[C@@]3(C)[C@H](CC[C@@H]4[C@@H]3[C@H](O)C[C@]3(C)[C@@H](C5=CC(=O)OC5)CC[C@]43O)C2)[C@@H]1O"
  discreteLabel: "Y"
- inputSmiles: "O=[N+]([O-])c1ccc(/C=C/c2ccc(/C=C/c3ccc([N+](=O)[O-])cc3[N+](=O)[O-])cc2)c([N+](=O)[O-])c1"
  discreteLabel: "N"
- inputSmiles: "CN(C)c1nc(N)nc(CCl)n1"
  discreteLabel: "N"

###

tested on: NCI-H23; test: NCI tumour cell line growth inhibition, 48 h
Calls of active or inactive are those of the source. Rule as the data show it: active = GI50 up to about 1.1 µM and inactive = higher.
Labels: active, inactive

- compound: "Cc1cc2ncc3c(=O)n(NS(=O)(=O)c4ccc(N)cc4)ccc3n2n1"
  discreteLabel: "inactive"
- compound: "NC1CC(=O)c2ccccc21 (stereo not given)"
  discreteLabel: "inactive"
- compound: "C/C(=N\\Nc1nc2ccccc2s1)c1cc(C)ncn1"
  discreteLabel: "active"
- compound: "CO/N=C(\\C(=O)Nn1cn[n+](CC(=O)[O-])c1)c1csc(N)n1"
  discreteLabel: "inactive"
- compound: "CC(C)(C)[Si](C)(C)OCC1OC(n2ccc(=O)[nH]c2=O)C(O[Si](C)(C)C(C)(C)C)[C@]12O[C@@H]2CO (stereo not given in full)"
  discreteLabel: "inactive"
- compound: "COc1cc(C=O)cc(O)c1O"
  discreteLabel: "inactive"
- compound: "Clc1ccc(CCNC2(c3cc4ccccc4s3)CCCCC2)cc1Cl"
  discreteLabel: "inactive"
- compound: "O=[N+]([O-])c1ccc(/C=C/c2ccc(/C=C/c3ccc([N+](=O)[O-])cc3[N+](=O)[O-])cc2)c([N+](=O)[O-])c1"
  discreteLabel: "inactive"
- compound: "C=CCC1CC(n2cc(C)c(=O)[nH]c2=O)OC1CO[Si](C)(C)C(C)(C)C (stereo not given)"
  discreteLabel: "inactive"
- compound: "O=c1[nH]nc(Cc2ccccc2)n1N=C1CCCCC1"
  discreteLabel: "inactive"
